test system: rat's removed bladder specimen; assay: Inhibition of the contraction of rat's removed bladder specimen (15 mM K+-induced contraction, organ bath); details: SD male rat bladder strips, dose giving 50% inhibition of contraction area
Structures can show the parent of a compound that is named as a salt.
Endpoint name: log10 of IC50 (log10 of the value in nM)

[[record]]
compound = "N#Cc1c(N)nc(OCCOC(=O)[C@@H](N)Cc2ccccc2)c(C#N)c1-c1ccccc1 [Example 15, monohydrochloride monohydrate]"
reported = 3.45

[[record]]
compound = "Cc1c(-c2ccccc2F)[nH]c(N)c1C#N"
reported = 3.04

[[record]]
compound = "C#CCOc1nc(N)c(C#N)c(-c2ccccc2F)c1C#N"
reported = 2.61

[[record]]
compound = "COc1nc(N)c(C#N)c(Cc2ccccc2)c1C#N"
reported = 3.00

[[record]]
compound = "COc1nc(N)c(C#N)c(-c2cccs2)c1C#N"
reported = 2.18

[[record]]
compound = "N#Cc1c(N)nc(OCC(F)F)c(C#N)c1-c1ccccc1F"
reported = 2.61

[[record]]
compound = "COc1nc(N)c(C#N)c(CC2CCCCC2)c1C#N"
reported = 3.11

[[record]]
compound = "COc1nc(NC(C)=O)c(C#N)c(-c2ccccc2F)c1C#N"
reported = 3.15

[[record]]
compound = "COc1nc(N)c(C#N)c(C2CCCCO2)c1C#N (centres unmarked)"
reported = 3.11

[[record]]
compound = "COc1nc(N)c(C#N)c(-c2ccc(N)cc2)c1C#N.Cl.O [Example 20, monohydrochloride monohydrate]"
reported = 2.04

[[record]]
compound = "COc1nc(N)c(C#N)c(-c2ccccc2F)c1C#N"
reported = 2.36


* * *

Structures can show the parent of a compound that is named as a salt.
Endpoint name: melting point

[[record]]
molecule = "COc1nc(OC)c(C#N)c(-c2ccccc2)c1C#N [Example 358]"
reported = "157 to 159 °C"

[[record]]
molecule = "COc1nc(N)c(C#N)c(-c2cnc(N)s2)c1C#N (as salt: chloride) [Example 67]"
reported = "240 to 242 °C (dec.)"

[[record]]
molecule = "COCCC(=O)Nc1nc(OC)c(C#N)c(-c2ccccc2F)c1C#N [Example 404]"
reported = "115 to 116 °C"

[[record]]
molecule = "COc1nc(NC(=O)NCCO)c(C#N)c(-c2ccccc2F)c1C#N [Example 420]"
reported = "140 to 144 °C"

[[record]]
molecule = "N#Cc1c(N)nc(SCc2ccccc2)c(C#N)c1-c1cccs1 [Example 386]"
reported = "208 to 209 °C"

[[record]]
molecule = "COc1nc(N)c(C#N)c(C2CCNCC2)c1C#N (as salt: hydrochloride) (hydrate or solvate)"
reported = "240 °C (dec.)"

[[record]]
molecule = "COc1nc(OCCO)c(C#N)c(-c2ccccc2)c1C#N [Example 33]"
reported = "170 to 172 °C"

[[record]]
molecule = "COCC(=O)Nc1nc(OC)c(C#N)c(-c2ccccc2F)c1C#N [Example 60]"
reported = "168 to 169 °C"

[[record]]
molecule = "COc1nc(N)c(C#N)c(C2CCCNC2)c1C#N (centres unmarked)"
reported = "176 to 178 °C"

[[record]]
molecule = "COc1ncc(C#N)c(-c2ccccc2)c1C#N [Example 26]"
reported = "148 to 149 °C"

[[record]]
molecule = "COc1nc(N)c(C#N)c(-c2cc(F)ccc2F)c1C#N [Example 126]"
reported = "201 to 202 °C"

[[record]]
molecule = "COc1nc(NC(=O)c2ccc3ccccc3c2)c(C#N)c(-c2ccccc2F)c1C#N [Example 411]"
reported = "227 to 230 °C"

[[record]]
molecule = "COc1nc(N)c(C#N)c(-c2ccc[nH]2)c1C#N [Example 169]"
reported = "198 to 199 °C"

[[record]]
molecule = "N#Cc1c(N)nc(N2CCNCC2)c(C#N)c1-c1ccccc1 (as salt: HCl) [Example 210]"
reported = "260 to 263 °C (dec.)"

[[record]]
molecule = "COc1nc(NC(=O)COCc2ccccc2)c(C#N)c(-c2ccccc2F)c1C#N [Example 399]"
reported = "164 to 166 °C"

[[record]]
molecule = "COc1nc(N)c(C#N)c(-c2c[nH]c3ccccc23)c1C#N [Example 170]"
reported = "> 300 °C"

[[record]]
molecule = "CNc1nc(OC)c(C#N)c(-c2ccccc2)c1C#N [Example 360]"
reported = "216 to 218 °C"

[[record]]
molecule = "COc1nc(NC(C)=O)c(C#N)c(-c2ccccc2F)c1C#N [Example 58]"
reported = "192 to 193 °C"

[[record]]
molecule = "N#Cc1c(N)nc(O)c(C#N)c1Cc1ccccc1 [Example 434]"
reported = "314 to 315 °C"

[[record]]
molecule = "CC(C)Oc1nc(N)c(C#N)c(-c2ccccc2F)c1C#N [Example 18]"
reported = "161 to 162 °C"

[[record]]
molecule = "N#Cc1c(N)nc(Oc2cccc(C(=O)O)c2)c(C#N)c1-c1ccccc1 [Example 31]"
reported = "284 to 286 °C"

[[record]]
molecule = "COc1nc(F)c(C#N)c(-c2ccccc2)c1C#N [Example 43]"
reported = "156 to 158 °C"

[[record]]
molecule = "COc1nc(NC(=O)c2ccco2)c(C#N)c(-c2ccccc2F)c1C#N [Example 415]"
reported = "222 to 223 °C"

[[record]]
molecule = "COc1nc(N)c(C#N)c(-c2ccnc(N)n2)c1C#N (as salt: HCl) (hydrate or solvate) [Example 174]"
reported = "80 °C (dec.)"

[[record]]
molecule = "CCC(=O)N(C(=O)CC)c1nc(OC)c(C#N)c(-c2ccccc2F)c1C#N [Example 73]"
reported = "160 to 161 °C"

[[record]]
molecule = "COc1nc(N)c(C#N)c(-c2ccc(NS(C)(=O)=O)cc2)c1C#N [Example 38]"
reported = "265 to 266 °C"

[[record]]
molecule = "C#CCOc1nc(N)c(C#N)c(-c2ccccc2F)c1C#N [Example 11]"
reported = "205 to 206 °C"

[[record]]
molecule = "CCN(CC)CCOc1ccc(-c2c(C#N)c(N)nc(OC)c2C#N)cc1.Cl (hydrate or solvate)"
reported = "132 to 133 °C"

[[record]]
molecule = "CSc1nc(N)c(C#N)c(-c2ccsc2)c1C#N [Example 7]"
reported = "241 to 243 °C"

[[record]]
molecule = "COc1nc(NC(=O)CCc2ccccc2)c(C#N)c(-c2ccccc2F)c1C#N [Example 402]"
reported = "183 to 184 °C"

[[record]]
molecule = "N#Cc1c(N)nc(Br)c(C#N)c1-c1cccs1 [Example 373]"
reported = "312 °C"

[[record]]
molecule = "COc1nc(N)c(C#N)c(-c2ccccc2F)c1C#N [Example 3]"
reported = "240 to 241 °C"

[[record]]
molecule = "N#Cc1c(N)nc(SCc2cccnc2)c(C#N)c1Cc1ccccc1 [Example 438]"
reported = "259 to 260 °C"

[[record]]
molecule = "CCc1c(C#N)c(N)nc(OC)c1C#N [Example 149]"
reported = "160 to 161 °C"

[[record]]
molecule = "N#Cc1c(N)nc(OCCO)c(C#N)c1-c1ccccc1 [Example 13]"
reported = "212 to 214 °C"

[[record]]
molecule = "COc1nc(NC(=O)Cc2ccccc2)c(C#N)c(-c2ccccc2F)c1C#N [Example 416]"
reported = "206 to 208 °C"

[[record]]
molecule = "Cl.Cl.N#Cc1c(NCCN)nc(NCCN)c(C#N)c1-c1ccccc1"
reported = "> 280 °C"

[[record]]
molecule = "COc1nc(NC(=O)C2CC2)c(C#N)c(-c2ccccc2F)c1C#N [Example 70]"
reported = "203 to 204 °C"

